Test system: SNB-75
Procedure Details: Cytotoxicity against human SNB75 cells assessed as cellular growth at 10 uM by SRB assay
Format: functional

{"Molecular String": "COc1cccc(C(=O)Nc2nc3ccc(Cl)cc3s2)c1", "Measurement Target": "SNB-75", "Units Symbol": "%", "Activity": 109.63}
{"Molecular String": "COc1ccc2[nH]c(C(=O)NCc3ccccc3)cc2c1", "Measurement Target": "SNB-75", "Units Symbol": "%", "Activity": 87.91}
{"Molecular String": "O=C(Nc1nc2ccc(Cl)cc2s1)c1ccc(Cl)cc1Cl", "Measurement Target": "SNB-75", "Units Symbol": "%", "Activity": 114.42}
{"Molecular String": "Cc1ccc(C2=N/C(=C\\c3ccccc3)C(=O)O2)cc1", "Measurement Target": "SNB-75", "Units Symbol": "%", "Activity": 90.22}
{"Molecular String": "O=C(NCCc1ccc(Cl)cc1)c1[nH]c2ccccc2c1Cl", "Measurement Target": "SNB-75", "Units Symbol": "%", "Activity": 89.76}
{"Molecular String": "Cc1cccc(-c2nc(-c3cccs3)no2)c1", "Measurement Target": "SNB-75", "Units Symbol": "%", "Activity": 85.75}
{"Molecular String": "COc1ccc2nc(NC(=O)c3ccc(F)cc3)sc2c1", "Measurement Target": "SNB-75", "Units Symbol": "%", "Activity": 109.5}
{"Molecular String": "Cc1ccc(NC(=O)c2sc3nc(-c4cccs4)ccc3c2N)cc1C", "Measurement Target": "SNB-75", "Units Symbol": "%", "Activity": 111.99}
{"Molecular String": "Cc1ccc(NC(=O)c2sc3nc4c(cc3c2N)C(=O)CCC4)cc1Cl", "Measurement Target": "SNB-75", "Units Symbol": "%", "Activity": 110.07}
{"Molecular String": "c1ccc(-c2nc(-c3cccs3)no2)cc1", "Measurement Target": "SNB-75", "Units Symbol": "%", "Activity": 105.81}
{"Molecular String": "COc1ccc(S(=O)(=O)n2ccc(-c3ccc4c(c3)CCC(C)(C)O4)n2)cc1", "Measurement Target": "SNB-75", "Units Symbol": "%", "Activity": 83.99}
{"Molecular String": "O=S(=O)(Oc1ccc(-c2cnc3ccccc3n2)cc1)c1ccc2ccccc2c1", "Measurement Target": "SNB-75", "Units Symbol": "%", "Activity": 119.77}
{"Molecular String": "Nc1c(C(=O)NCc2ccccc2)sc2nc3c(cc12)C(=O)CCC3", "Measurement Target": "SNB-75", "Units Symbol": "%", "Activity": 113.06}
